This collection of values is drawn from paper PMC10421400.

- protocol-notes: Ferric-ion-reducing antioxidant power (FRAP) assay
- stated-conditions: ascorbic acid equivalents; sample stock 1 mg/mL; read at 593 nm after 30 min
measured-parameter: FRAP (µM AAE/g)
A number alone suffices; assume µM AAE/g.

Use these answered entries as a reference point.
| compound | measurement-unit | FRAP |
| --- | --- | --- |
| O=C(O[C@@H]1Cc2c(O)cc(O)cc2O[C@@H]1c1cc(O)c(O)c(O)c1)c1cc(O)c(O)c(O)c1 [EGCG, Epigallocatechin gallate, reference compound] | µM AAE/g | 3326.45 |
| COc1c(O)c(OC)c2oc(-c3ccccc3)c(OC)c(=O)c2c1O [Compound C-2, 5,7-dihydroxy-3,6,8-trimethoxyflavone] | µM AAE/g | 1402.62 |

Then this compound:
Consider the compound C/C=C(\C)C(=O)Oc1c(O)c(OC)c(O)c2c(=O)c(OC)c(-c3ccccc3)oc12 and give its measured FRAP.
1251.45
